Just for reference, patent US20250136606A1 is where these values come from.

biological target: TRPML2 (Homo sapiens, UniProt Q8IZK6); construct: expressed in transfected cells; test: Fluorescent TRPML2 assay (performed as for TRPML1, substituting the TRPML2 subtype); format: cell-based; conditions: fluorescent calcium assay
Sequence (Q8IZK6 whole entry): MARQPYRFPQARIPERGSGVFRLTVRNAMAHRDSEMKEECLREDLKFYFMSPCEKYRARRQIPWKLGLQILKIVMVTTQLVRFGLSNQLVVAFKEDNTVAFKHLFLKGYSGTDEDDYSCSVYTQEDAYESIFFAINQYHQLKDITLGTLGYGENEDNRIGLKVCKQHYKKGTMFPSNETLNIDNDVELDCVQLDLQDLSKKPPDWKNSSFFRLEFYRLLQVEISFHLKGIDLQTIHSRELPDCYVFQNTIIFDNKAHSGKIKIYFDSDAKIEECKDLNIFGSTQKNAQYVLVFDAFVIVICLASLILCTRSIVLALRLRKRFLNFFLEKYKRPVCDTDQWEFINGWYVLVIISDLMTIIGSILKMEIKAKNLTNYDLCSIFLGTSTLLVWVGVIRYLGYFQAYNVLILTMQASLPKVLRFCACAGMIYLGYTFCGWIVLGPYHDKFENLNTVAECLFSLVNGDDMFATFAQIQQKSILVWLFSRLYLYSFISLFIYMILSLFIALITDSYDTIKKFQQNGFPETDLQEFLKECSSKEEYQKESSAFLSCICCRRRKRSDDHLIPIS
Each entry below carries its recorded EC50.

Field: example entries. Status: answers known.
compoundstructure=C[C@@H]1CN(c2ncnc3c2c(N2CCCC2)cn3-c2cccc(Cl)c2)CCN1C(=O)OC(C)(C)C val="100 to 500 nM"
compoundstructure=C[C@@H]1CN(C(=O)OC(C)(C)C)CCN1c1ncnc2c1c(N1CCOCC1)cn2-c1cccc(Cl)c1 val="500 to 2000 nM"
compoundstructure=C[C@H]1CN(C(=O)OC(C)(C)C)CCN1c1ncnc2c1c(-c1ccccc1F)cn2-c1nccc(C#N)n1 val="500 to 2000 nM"

Lab note: `CCCOc1cn(-c2cc(C#N)ccn2)c2ncnc(N3CCN(C(=O)OC(C)(C)C)C[C@@H]3C)c12` gave EC50 of < 100 nM

Please fill in: EC50 reported for `C[C@@H]1CN(c2ncnc3c2c(-c2cnccn2)cn3-c2cc(F)cc(Cl)c2)CCN1C(=O)OC(C)(C)C` = 500 to 2000 nM

For reference, reported EC50 for `CCCN(CC)c1cn(-c2cc(C#N)ccn2)c2ncnc(N3CCN(C(=O)OC(C)(C)C)C[C@@H]3C)c12` stands at < 100 nM

Consider `C[C@H]1CN(C(=O)OC(C)(C)C)CCN1c1ncnc2c1c(C1CC1)cn2-c1nccc(C#N)n1` . Its measured EC50 is 500 to 2000 nM

Measured EC50 of `CC(C)(C)OC(=O)N1CCN(c2ncnc3c2c(-c2ccccc2F)cn3-c2ncc(C#N)s2)CC1` : 100 to 500 nM

Per the record, `C[C@H]1CN(C(=O)OC(C)(C)C)CCN1c1ncnc2c1c(-c1cccnc1)cn2-c1cc(C#N)ccn1` has EC50 of < 100 nM
